Values from ChEMBL document CHEMBL1126244

target-desc: Human immunodeficiency virus type 1 protease (Human immunodeficiency virus 1, UniProt Q72874)
Provide the reported IC50 of each item.
Just the number in nM, nothing appended.

For the compound CC[C@H](C[C@H](O)[C@H](Cc1ccccc1)NC(=O)OC(C)(C)C)C(=O)N[C@H]1c2ccccc2C[C@H]1O , give its reported IC50.
34.7

For the compound CC(C)(C)OC(=O)N[C@@H](Cc1ccccc1)[C@@H](O)C[C@@H](Cc1ccc(CN2CCOCC2)cc1)C(=O)N[C@H]1c2ccccc2C[C@H]1O , give its reported IC50.
1.15

For the compound CC(C)(C)OC(=O)N[C@@H](Cc1ccccc1)[C@@H](O)C[C@@H](Cc1ccc(F)cc1)C(=O)N[C@H]1c2ccccc2C[C@H]1O , give its reported IC50.
0.44

For the compound CC(C)C[C@H](NC(=O)[C@H](C/C=C/c1ccccc1)C[C@H](O)[C@H](Cc1ccccc1)NC(=O)OC(C)(C)C)C(=O)N[C@@H](Cc1ccccc1)C(N)=O , give its reported IC50.
0.23

For the compound COC(CCc1ccc(C[C@H](C[C@H](O)[C@H](Cc2ccccc2)NC(=O)OC(C)(C)C)C(=O)N[C@H]2c3ccccc3C[C@H]2O)cc1)OC , give its reported IC50.
0.08

For the compound CC(C)(C)OC(=O)N[C@@H](Cc1ccccc1)[C@@H](O)C[C@@H](Cc1ccc(CCC[N+](C)(C)C)cc1)C(=O)N[C@H]1c2ccccc2C[C@H]1O , give its reported IC50.
0.91

For the compound CC(C)(C)OC(=O)N[C@@H](Cc1ccccc1)[C@@H](O)C[C@@H](Cc1ccccc1)C(=O)N[C@H]1c2ccccc2C[C@H]1O , give its reported IC50.
0.23

For the compound CC(C)(C)OC(=O)N[C@@H](Cc1ccccc1)[C@@H](O)C[C@@H](Cc1cccc(O)c1)C(=O)N[C@H]1c2ccccc2C[C@H]1O , give its reported IC50.
0.21

For the compound CSc1ccc(C[C@H](C[C@H](O)[C@H](Cc2ccccc2)NC(=O)OC(C)(C)C)C(=O)N[C@H]2c3ccccc3C[C@H]2O)cc1 , give its reported IC50.
0.22

For the compound COCCOCOCCc1ccc(C[C@H](C[C@H](O)[C@H](Cc2ccccc2)NC(=O)OC(C)(C)C)C(=O)N[C@H]2c3ccccc3C[C@H]2O)cc1 , give its reported IC50.
0.13

For the compound CC(C)(C)OC(=O)N[C@@H](Cc1ccccc1)[C@@H](O)C[C@@H](Cc1c(F)c(F)c(F)c(F)c1F)C(=O)N[C@H]1c2ccccc2C[C@H]1O , give its reported IC50.
0.6

For the compound CC(C)(C)OC(=O)N[C@@H](Cc1ccccc1)[C@@H](O)C[C@@H](C/C=C/c1ccc(O)cc1)C(=O)N[C@H]1c2ccccc2C[C@H]1O , give its reported IC50.
0.17

====

target-desc: Human immunodeficiency virus type 1 protease (Human immunodeficiency virus 1)
// boundary case: IC50 equal to 0.4 nM maps to 0; strictly smaller maps to 1

Dear colleague, could you confirm whether IC50 of COCCOCOCCCc1ccc(C[C@H](C[C@H](O)[C@H](Cc2ccccc2)NC(=O)OC(C)(C)C)C(=O)N[C@H]2c3ccccc3C[C@H]2O)cc1 falls below 0.4 nM? Thanks.
1

Dear colleague, could you confirm whether IC50 of CC(C)C[C@H](NC(=O)[C@H](Cc1cccc2ccccc12)C[C@H](O)[C@H](Cc1ccccc1)NC(=O)OC(C)(C)C)C(=O)N[C@@H](Cc1ccccc1)C(N)=O falls below 0.4 nM? Thanks.
0

Dear colleague, could you confirm whether IC50 of CC(C)C[C@H](NC(=O)[C@H](Cc1ccccc1)C[C@H](O)[C@H](Cc1ccccc1)NC(=O)OC(C)(C)C)C(=O)N[C@@H](Cc1ccccc1)C(N)=O falls below 0.4 nM? Thanks.
0

Dear colleague, could you confirm whether IC50 of CC(C)(C)OC(=O)N[C@@H](Cc1ccccc1)[C@@H](O)C[C@@H](Cc1ccc(CCCO)cc1)C(=O)N[C@H]1c2ccccc2C[C@H]1O falls below 0.4 nM? Thanks.
1

Dear colleague, could you confirm whether IC50 of CC(C)C[C@H](NC(=O)[C@H](C)C[C@H](O)[C@H](Cc1ccccc1)NC(=O)OC(C)(C)C)C(=O)N[C@@H](Cc1ccccc1)C(N)=O falls below 0.4 nM? Thanks.
0

Dear colleague, could you confirm whether IC50 of CC(C)(C)OC(=O)N[C@@H](Cc1ccccc1)[C@@H](O)C[C@@H](C/C=C/c1ccccc1)C(=O)N[C@H]1c2ccccc2C[C@H]1O falls below 0.4 nM? Thanks.
1

====

Provide the reported pIC50 of each item.
target-desc: Human immunodeficiency virus type 1 protease (Human immunodeficiency virus 1, UniProt Q72874)
Value format note: pIC50 is -log10 of concentration (mol/L); just state the number.

For the compound CC(C)(C)OC(=O)N[C@@H](Cc1ccccc1)[C@@H](O)C[C@@H](Cc1ccc([N+](=O)[O-])cc1)C(=O)N[C@H]1c2ccccc2C[C@H]1O , give its reported pIC50.
9.57

For the compound CN(C)Cc1ccc(C[C@H](C[C@H](O)[C@H](Cc2ccccc2)NC(=O)OC(C)(C)C)C(=O)N[C@H]2c3ccccc3C[C@H]2O)cc1 , give its reported pIC50.
8.85

For the compound CC(C)(C)OC(=O)N[C@@H](Cc1ccccc1)[C@@H](O)C[C@@H](Cc1ccc(C(C)(C)C)cc1)C(=O)N[C@H]1c2ccccc2C[C@H]1O , give its reported pIC50.
9.57

For the compound CC(C)(C)OC(=O)N[C@@H](Cc1ccccc1)[C@@H](O)C[C@@H](Cc1ccc(N)cc1)C(=O)N[C@H]1c2ccccc2C[C@H]1O , give its reported pIC50.
9.51

For the compound CC(C)(C)OC(=O)N[C@@H](Cc1ccccc1)[C@@H](O)C[C@@H](CCc1cnc2ccccc2n1)C(=O)N[C@H]1c2ccccc2C[C@H]1O , give its reported pIC50.
9.77

For the compound CC(C)(C)OC(=O)N[C@@H](Cc1ccccc1)[C@@H](O)C[C@@H](Cc1ccc(S(C)(=O)=O)cc1)C(=O)N[C@H]1c2ccccc2C[C@H]1O , give its reported pIC50.
9.77
